System: T. cruzi Tulahuen strain parasites in 3T3 host cells
Assay: T. cruzi 48 h image-based assay
Format: cell-based, Trypanosoma cruzi
Conditions: selectivity index in relation to HEK293 cells
measurement.kind: SI (T. cruzi) HEK

Some compounds with recorded SI (T. cruzi) HEK:
O=C(NCc1nnc2n1CCCCC2)c1ccc(-c2ccc(F)cc2)o1 :: >66 (>66)
CC1CCCCN1C(=O)NCCc1coc(-c2ccc(F)cc2)n1 (stereo not drawn) :: >154 (>154)

For the compound shown here, O=C(Nc1ccc(N2CCNCC2)cc1)c1ccn2ncc(-c3cccc(Cl)c3)c2n1 , give the reported SI (T. cruzi) HEK. 2.03 (NT)

Next compound: N=C(N)c1ccc(-c2cc(-c3ccccc3)on2)cc1 1.9 (NT)

Next compound: O=C(Nc1ccc2c(c1)B(O)OC2)c1ccccc1C(F)(F)F 45

Next compound: CN(C)c1cc(NC(=O)Nc2ccccc2)c2ccccc2n1 15

Next compound: OCCc1ccc(Nc2nccc(-c3nnc4ccccn34)n2)cc1 1.0 (NT)

Next compound: COc1ccc(C[C@H](N)C(=O)N[C@H]2[C@@H](O)[C@H](n3cnc4c(N(C)C)ncnc43)O[C@@H]2CO)cc1 [Puromycin, reference compound] 0.13

Next compound: CN1CCC(NCc2cccc(-c3ccc(S(=O)(=O)NCc4ccccc4)cc3)c2)CC1 1.0 (NT)

Next compound: CN1CCN(S(=O)(=O)c2ccc(-c3ccc4c(Nc5ncc(Cl)cn5)ccnc4c3)cc2)CC1 >12 (>12)

Next compound: COc1ccc(S(=O)(=O)Nc2ccc(CN3CCN(C(=O)c4cccc(C#N)c4)CC3)cc2)cc1 >66 (>66)

Next compound: CCc1ccccc1-n1c(C)cn2c3c(=O)n(C(C(=O)OC)C(C)C)c(=O)n(C)c3nc12 (stereo not drawn) >149 (>149)

Next compound: CCCCN(CCCC)c1c(C#N)cc(S(=O)(=O)Nc2ccccc2)cc1C#N > 34

Next compound: Cc1cc(C2=NOC(c3cc(Cl)c(F)c(Cl)c3)(C(F)(F)F)C2)ccc1C(=O)NCc1ccc2c(c1)C(C)(C)OB2O (stereo not drawn) 8.1

Next compound: Nc1nc2ccc(-c3cncc(Oc4ccc(F)cc4)c3)cc2[nH]1 53

Next compound: O=C(NCCc1ccn(-c2ccccc2)n1)C1CCCCC1 >136 (>136)

Next compound: Cc1ccc(S(=O)(=O)Nc2ccc(CN3CCN(C(=O)c4cccc(C#N)c4)CC3)cc2)cc1 >113 (>113)

Next compound: c1ccc(Oc2ccc(-c3cc(N4CCNCC4)[nH]n3)cc2)cc1 1.5 (NT)

###

Tested on: T.b. brucei bloodstream 427 strain parasites
Test: T.b. brucei 72 h REDOX-based (resazurin) viability assay
Format: cell-based, Trypanosoma brucei brucei
Details: 72 h
measurement.kind: Emax % (T.b. brucei) (%)
Numbers only here, please. The scale is %.

Some compounds with recorded Emax % (T.b. brucei):
c1ccc(Oc2ccc(-c3cc(N4CCNCC4)[nH]n3)cc2)cc1 :: 99
CCCCN(CCCC)c1c(C#N)cc(S(=O)(=O)Nc2ccccc2)cc1C#N :: 99
CN1CCN(S(=O)(=O)c2ccc(-c3ccc4c(Nc5ncc(Cl)cn5)ccnc4c3)cc2)CC1 :: 99
O=C(Nc1ccc(F)c(-c2nc3ncc(-c4ccccc4)cc3[nH]2)c1)N1CCCC1 :: 99
OCCc1ccc(Nc2nccc(-c3nnc4ccccn34)n2)cc1 :: 100
Cc1cc(C2=NOC(c3cc(Cl)c(F)c(Cl)c3)(C(F)(F)F)C2)ccc1C(=O)NCc1ccc2c(c1)C(C)(C)OB2O (stereo not shown) :: 99
O=C(Nc1ccc(N2CCNCC2)cc1)c1ccn2ncc(-c3cccc(Cl)c3)c2n1 :: 98
CN1CCC(NCc2cccc(-c3ccc(S(=O)(=O)NCc4ccccc4)cc3)c2)CC1 :: 99
N=C(N)c1ccc(-c2cc(-c3ccccc3)on2)cc1 :: 99

For the compound shown here, CN(C)c1cc(NC(=O)Nc2ccccc2)c2ccccc2n1 , give the reported Emax % (T.b. brucei). 99

###

System: T.b. brucei
Assay: T.b. brucei temporal viability (time-kill) assay, 48 h, PrestoBlue
Type: cell-based, Trypanosoma brucei brucei
Details: Trypanosoma brucei, read-out: IC50 48 h T.b. brucei
Define the label as Condition met when IC50 is strictly less than 100 nM and as Condition not met in all remaining cases.

CCc1ccccc1-n1c(C)cn2c3c(=O)n(C(C(=O)OC)C(C)C)c(=O)n(C)c3nc12 (stereo not drawn) :: Condition met

Say whether its IC50 is strictly beneath 100 nM. Entry: O=C(Nc1ccc2c(c1)B(O)OC2)c1ccccc1C(F)(F)F Condition not met

Next molecule: N=C(N)c1ccc(OCCCCCOc2ccc(C(=N)N)cc2)cc1 [Pentamidine, reference compound] Condition met

Next molecule: N=C(N)c1ccc(/N=N/Nc2ccc(C(=N)N)cc2)cc1 [Diminazene aceturate, reference compound] Condition met

Next molecule: C[C@@H]1[C@H](O)[C@@H](C)/C=C/C=C/C=C/C=C/C=C/C=C/C=C/[C@H](O[C@@H]2O[C@H](C)[C@@H](O)[C@H](N)[C@@H]2O)C[C@@H]2O[C@](O)(C[C@@H](O)C[C@@H](O)[C@H](O)CC[C@@H](O)C[C@@H](O)CC(=O)O[C@H]1C)C[C@H](O)[C@H]2C(=O)O [Amphotericin B, reference compound] Condition not met

Next molecule: Nc1nc2ccc(-c3cncc(Oc4ccc(F)cc4)c3)cc2[nH]1 Condition not met

Next molecule: COc1ccc(S(=O)(=O)Nc2ccc(CN3CCN(C(=O)c4cccc(C#N)c4)CC3)cc2)cc1 Condition not met

Next molecule: Cc1ccc(S(=O)(=O)Nc2ccc(CN3CCN(C(=O)c4cccc(C#N)c4)CC3)cc2)cc1 Condition not met

Next molecule: O=C(NCCc1ccn(-c2ccccc2)n1)C1CCCCC1 Condition not met

###

Target: T. cruzi recombinant CYP51 (TcCYP51) (Trypanosoma cruzi)
Sequence (Q7Z1V1 whole entry): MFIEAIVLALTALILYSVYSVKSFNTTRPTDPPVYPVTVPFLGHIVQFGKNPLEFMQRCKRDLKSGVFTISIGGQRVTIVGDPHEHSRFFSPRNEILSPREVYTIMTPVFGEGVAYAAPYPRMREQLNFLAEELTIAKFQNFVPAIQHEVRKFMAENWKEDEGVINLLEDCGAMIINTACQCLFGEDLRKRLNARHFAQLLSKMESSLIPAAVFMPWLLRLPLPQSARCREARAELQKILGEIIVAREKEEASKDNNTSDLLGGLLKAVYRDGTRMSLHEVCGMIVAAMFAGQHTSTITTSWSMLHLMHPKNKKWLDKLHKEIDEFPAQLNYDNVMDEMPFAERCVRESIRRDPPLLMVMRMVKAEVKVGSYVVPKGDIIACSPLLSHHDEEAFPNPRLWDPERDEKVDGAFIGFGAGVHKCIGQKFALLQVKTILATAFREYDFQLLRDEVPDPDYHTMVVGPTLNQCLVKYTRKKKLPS
Assay: biochemical
Conditions: top concentration 100 µM
measurement.kind: IC50

Query IC50 on T. cruzi recombinant CYP51 (TcCYP51) (Trypanosoma cruzi) for COc1ccc(S(=O)(=O)Nc2ccc(CN3CCN(C(=O)c4cccc(C#N)c4)CC3)cc2)cc1 [MMV 689029] > 100 µM

###

System: T. cruzi
Assay: T. cruzi compound wash off assay (48 h with compound, wash off, 72 h without)
Format: cell-based, Trypanosoma cruzi
Details: T. cruzi; 48 h incubation, wash off, further 72 h; read-out: IC50 Wash Off
measurement.kind: IC50 (nM)
Numbers only here, please. The scale is nM.

Some molecules with recorded IC50:
O=C(Nc1ccc(F)c(-c2nc3ncc(-c4ccccc4)cc3[nH]2)c1)N1CCCC1 :: 130
CN1CCN(S(=O)(=O)c2ccc(-c3ccc4c(Nc5ncc(Cl)cn5)ccnc4c3)cc2)CC1 :: 7600
CCCCN(CCCC)c1c(C#N)cc(S(=O)(=O)Nc2ccccc2)cc1C#N :: 2100
OCCc1ccc(Nc2nccc(-c3nnc4ccccn34)n2)cc1 :: 12000

Query IC50 on T. cruzi for Cc1cc(C2=NOC(c3cc(Cl)c(F)c(Cl)c3)(C(F)(F)F)C2)ccc1C(=O)NCc1ccc2c(c1)C(C)(C)OB2O (centres unmarked) 1600

###

Tested on: T.b. brucei
Test: T.b. brucei temporal viability (time-kill) assay, 24 h, PrestoBlue
Assay type: cell-based, Trypanosoma brucei brucei
Details: Trypanosoma brucei, read-out: IC50 24 h T.b. brucei
pIC50: −log10 of the molar value.
# binarize pIC50: threshold 7 inclusive, high side criterion met, low side criterion not met

Take a look at these entries with their results.
N=C(N)c1ccc(OCCCCCOc2ccc(C(=N)N)cc2)cc1 [Pentamidine, reference compound] :: criterion met
N=C(N)c1ccc(/N=N/Nc2ccc(C(=N)N)cc2)cc1 [Diminazene aceturate, reference compound] :: criterion not met
O=C(NCCc1ccn(-c2ccccc2)n1)C1CCCCC1 [MMV 688795] :: criterion not met

Now consider a different compound.
Kindly determine if pIC50 recorded for Cc1ccc(S(=O)(=O)Nc2ccc(CN3CCN(C(=O)c4cccc(C#N)c4)CC3)cc2)cc1 [MMV 689028] is above or exactly 7. criterion not met

###

System: T. cruzi Tulahuen strain parasites in 3T3 host cells
Test: T. cruzi 48 h image-based assay
Assay type: cell-based, Trypanosoma cruzi
Conditions: Trypanosoma cruzi, TULAHUEN, 48 h; read-out: IC50 (T. cruzi)
measurement.kind: IC50 (nM)
Numbers only here, please. The scale is nM.

Some compounds with recorded IC50:
O=C(Cn1ccnc1[N+](=O)[O-])NCc1ccccc1 [Benznidazole, reference compound] :: 3400
CC1CCCCN1C(=O)NCCc1coc(-c2ccc(F)cc2)n1 (stereo not drawn) :: 510

# input for lookup
For the compound shown here, COc1ccc(S(=O)(=O)Nc2ccc(CN3CCN(C(=O)c4cccc(C#N)c4)CC3)cc2)cc1 , give the reported IC50. 1200

###

System: T.b. brucei
Assay: T.b. brucei temporal viability (time-kill) assay, 48 h, PrestoBlue
Assay type: cell-based, Trypanosoma brucei brucei
Conditions: Trypanosoma brucei, read-out: IC50 48 h T.b. brucei
measurement.kind: pIC50
Expect pIC50 as a plain number equal to -log10 of the molar concentration.

Some compounds with recorded pIC50:
COc1ccc(C[C@H](N)C(=O)N[C@H]2[C@@H](O)[C@H](n3cnc4c(N(C)C)ncnc43)O[C@@H]2CO)cc1 [Puromycin, reference compound] :: 7.01
O=C(NCc1nnc2n1CCCCC2)c1ccc(-c2ccc(F)cc2)o1 :: 7.01

# input for lookup
Query pIC50 on T.b. brucei for CC1CCCCN1C(=O)NCCc1coc(-c2ccc(F)cc2)n1 (stereo not drawn) 7.00
